Catalogue of GI50 readings, one per entry.
system: UO-31; test: NCI tumour cell line growth inhibition, 48 h
Activity calls are given as the source filed them. Cut-off read from the data, not from the text of the source: active = GI50 up to about 1.1 µM and inactive = higher.

- MOLECULE: "OCC1OC(n2ccc3cnccc32)CC1O (stereo unspecified)"
  GI50: "> 100 µM (inactive)"
- MOLECULE: "ClCCC[Si]12OCCN(CCO1)CCO2"
  GI50: "> 100 µM (inactive)"
- MOLECULE: "O=C1C[C@@H]2[C@@H](C=CC23CC3)N1O"
  GI50: "> 100 µM (inactive)"
- MOLECULE: "C=CCc1cc(-c2cc(CC=C)c(O)c(CN(CCCl)CCCl)c2)cc(CN(CCCl)CCCl)c1O"
  GI50: "16.3 µM (inactive)"
- MOLECULE: "Cc1cc2occ(S(=O)(=O)NC(=O)Nc3ccc(Cl)cc3)c(=O)c2c(=O)o1"
  GI50: "> 100 µM (inactive)"
- MOLECULE: "COc1ccc2c(c1)/C(=C\\c1c(Cl)[nH]c3cc(C)c(OC)cc13)C(=O)N2"
  GI50: "3.13 µM (inactive)"
- MOLECULE: "N=C(CC(=O)Nc1ccccn1)c1ccccc1"
  GI50: "> 100 µM (inactive)"
- MOLECULE: "COC12C(COC(=O)NCCO)C3=C(C(=O)C(C)=C(N)C3=O)N1CC1NC12 (stereo unspecified)"
  GI50: "> 100 µM (inactive)"
- MOLECULE: "C=C(Br)C(Br)(CCl)CCC(Cl)C(C)C.C=C(Cl)C(Br)(CCl)CCC(Cl)C(C)C (stereo unspecified)"
  GI50: "1.63 µM (inactive)"
- MOLECULE: "O=C1/C(=N/c2ccccc2)Oc2cc(O)ccc21"
  GI50: "> 100 µM (inactive)"
- MOLECULE: "Cn1c2ccccc2c2ccc3c(c21)C(=O)c1ccc2c4ccccc4n(C)c2c1C3=O"
  GI50: "> 100 µM (inactive)"
